Data provenance is ChEMBL document CHEMBL1134454.

tested on: Aspergillus fumigatus; experiment: In vitro potency against Aspergillus fumigatus; type: functional
Bridge positions count the residues as written; N and C are the ends. Square brackets hold non-standard residues; d marks the D form. Peptide text beside a SMILES is read from it. * marks the point of attachment. Tetradecanoyl(3R-OH) = CCCCCCCCCCC[C@@H](O)CC(=O)*; Asp(3S-OH) = N[C@H](C(=O)O)[C@H](O)C(=O)O; Thr(4-Cl) = N[C@H](C(=O)O)[C@H](O)CCl; aThr = C[C@H](O)[C@H](N)C(=O)O; dDab = NCC[C@@H](N)C(=O)O; Dab = NCC[C@H](N)C(=O)O; Dhb = C/C=C(\N)C(=O)O
reported metric: MIC

Recorded MIC, per entry:
molecule="C/C=C1\\NC(=O)[C@H]([C@H](C)O)NC(=O)[C@H](CCN)NC(=O)[C@H](CCCCN)NC(=O)[C@H](CC(=O)O)NC(=O)[C@@H](CCN)NC(=O)[C@@H](NC(=O)C[C@H](O)CCCCCCCCCCC)COC(=O)[C@H]([C@H](O)CCl)NC(=O)[C@H]([C@H](O)C(=O)O)NC1=O [PSEUDOMYCIN B] ({Tetradecanoyl(3R-OH)}-S[dDab]DK[Dab][aThr][Dhb][Asp(3S-OH)][Thr(4-Cl)]; ester 1-C)" result="> 20 µg/mL"
molecule=C/C=C1\NC(=O)[C@H]([C@H](C)O)NC(=O)[C@H](CCN)NC(=O)[C@H](CCCCNC(=O)OCc2oc(=O)oc2C)NC(=O)[C@H](CC(=O)O)NC(=O)[C@@H](CCNC(=O)OCc2oc(=O)oc2C)NC(=O)[C@@H](NC(=O)C[C@H](O)CCCCCCCCCCC)COC(=O)[C@H]([C@H](O)CCl)NC(=O)[C@H]([C@H](O)C(=O)O)NC1=O result="> 20 µg/mL"
molecule=C/C=C1\NC(=O)[C@H]([C@H](C)O)NC(=O)[C@H](CCN)NC(=O)[C@H](CCCCN)NC(=O)[C@H](CC(=O)O)NC(=O)[C@@H](CCN)NC(=O)[C@@H](NC(=O)C[C@H](O)CCCCCCCCCCCCC)COC(=O)[C@H]([C@H](O)CCl)NC(=O)[C@H]([C@H](O)C(=O)O)NC1=O result="10 µg/mL"

Query string: What value of measured MIC is listed for C/C=C1\NC(=O)[C@H]([C@H](C)O)NC(=O)[C@H](CCNC(=O)OCc2oc(=O)oc2C)NC(=O)[C@H](CCCCNC(=O)OCc2oc(=O)oc2C)NC(=O)[C@H](CC(=O)O)NC(=O)[C@@H](CCNC(=O)OCc2oc(=O)oc2C)NC(=O)[C@@H](NC(=O)C[C@H](O)CCCCCCCCCCC)COC(=O)[C@H]([C@H](O)CCl)NC(=O)[C@H]([C@H](O)C(=O)O)NC1=O ?
Result string: > 20 µg/mL

Query string: What value of measured MIC is listed for C/C=C1\NC(=O)[C@H]([C@H](C)O)NC(=O)[C@H](CCNC(=O)OCc2oc(=O)oc2C)NC(=O)[C@H](CCCCN)NC(=O)[C@H](CC(=O)O)NC(=O)[C@@H](CCN)NC(=O)[C@@H](NC(=O)C[C@H](O)CCCCCCCCCCC)COC(=O)[C@H]([C@H](O)CCl)NC(=O)[C@H]([C@H](O)C(=O)O)NC1=O ?
Result string: > 20 µg/mL

Query string: What value of measured MIC is listed for C/C=C1\NC(=O)[C@H]([C@H](C)O)NC(=O)[C@H](CCNC(=O)OCc2oc(=O)oc2C)NC(=O)[C@H](CCCCNC(=O)OCc2oc(=O)oc2C)NC(=O)[C@H](CC(=O)O)NC(=O)[C@@H](CCNC(=O)OCc2oc(=O)oc2C)NC(=O)[C@@H](NC(=O)C[C@H](O)CCCCCCCCCCCCC)COC(=O)[C@H]([C@H](O)CCl)NC(=O)[C@H]([C@H](O)C(=O)O)NC1=O ?
Result string: > 20 µg/mL
